Kindly supply the reported CC50 values for the records listed here.
Assay: Cytotoxicity against mouse splenocyte by MTT assay
Type: toxicity, cell-based
Settings: mouse splenocytes

IN: Report CC50 for `COc1c2c(c(C(OC)OC)c3c1C(=O)OC3)O[C@]1(C)CC[C@@]3(O)C(C)(C)CCC[C@]3(C)[C@H]1C2`
OUT: > 50 µM

IN: Report CC50 for `COc1c2c(c(C=O)c3c1C(=O)OC3)O[C@]1(C)CC[C@@]3(O)C(C)(C)[C@@H](O)CC[C@]3(C)[C@H]1C2`
OUT: > 50 µM

IN: Report CC50 for `COc1c2c(c(C=O)c3c1C(=O)OC3)O[C@]1(C)CC[C@@]3(O)[C@@](C)(CO)CCC[C@]3(C)[C@H]1C2`
OUT: > 50 µM

IN: Report CC50 for `COc1c2c(c(C=O)c3c1C(=O)OC3)O[C@]1(C)CC[C@H]3C(C)(C)[C@H](O)CC[C@]3(C)[C@H]1C2`
OUT: 24 µM
